// data source = ChEMBL document CHEMBL1817647

experimentalSystem: Sodium-dependent dopamine transporter (Homo sapiens)
Sequence (Q01959 whole entry): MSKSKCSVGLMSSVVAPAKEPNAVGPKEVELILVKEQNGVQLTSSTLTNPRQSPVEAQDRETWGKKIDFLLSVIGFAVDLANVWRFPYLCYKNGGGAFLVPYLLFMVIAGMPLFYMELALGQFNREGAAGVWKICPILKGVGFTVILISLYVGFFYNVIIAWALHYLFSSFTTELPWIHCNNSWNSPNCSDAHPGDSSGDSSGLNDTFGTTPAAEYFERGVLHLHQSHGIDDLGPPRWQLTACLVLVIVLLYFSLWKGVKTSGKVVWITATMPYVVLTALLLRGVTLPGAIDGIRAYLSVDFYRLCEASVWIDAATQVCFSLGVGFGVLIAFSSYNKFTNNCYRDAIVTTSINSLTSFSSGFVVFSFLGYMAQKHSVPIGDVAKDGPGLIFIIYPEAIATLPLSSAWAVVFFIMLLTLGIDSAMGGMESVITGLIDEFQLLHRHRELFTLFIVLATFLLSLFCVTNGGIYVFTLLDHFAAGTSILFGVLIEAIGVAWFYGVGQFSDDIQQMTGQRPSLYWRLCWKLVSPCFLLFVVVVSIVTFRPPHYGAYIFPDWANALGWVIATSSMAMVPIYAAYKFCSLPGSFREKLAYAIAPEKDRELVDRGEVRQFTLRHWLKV
assayProcedure: Displacement of [3H]WIN-35428 from human recombinant DAT by scintillation proximity assay
assayReadout: Ki (nM)
Enter your answer as a number in nM; do not include the unit.

Study these solved cases before continuing.
compound: Cc1ccnn1CC12CNCC[C@]1(c1ccc(Cl)c(Cl)c1)C2 (single isomer, unassigned; enantiomer 2)
Ki, nM: 3.16
--
compound: Cc1cc([C@@]23CNCC[C@]2(c2ccc(Cl)c(Cl)c2)C3)no1 (racemic)
Ki, nM: 2
--
compound: FC(F)(F)c1ccnn1C[C@@]12CNCC[C@]1(c1ccc(Cl)c(Cl)c1)C2 (racemic)
Ki, nM: 1.58
--
compound: Cc1noc([C@@]23CNCC[C@]2(c2ccc(Cl)c(Cl)c2)C3)n1 (racemic)
Ki, nM: 0.794

Read the next record carefully.
In plain terms, Cc1nc(C)n(CC23CNCC[C@]2(c2ccc(Cl)c(Cl)c2)C3)n1 (stereo in doubt; 38) has a documented Ki of 200

###

experimentalSystem: Sodium-dependent serotonin transporter (Homo sapiens)
Sequence (P31645 whole entry): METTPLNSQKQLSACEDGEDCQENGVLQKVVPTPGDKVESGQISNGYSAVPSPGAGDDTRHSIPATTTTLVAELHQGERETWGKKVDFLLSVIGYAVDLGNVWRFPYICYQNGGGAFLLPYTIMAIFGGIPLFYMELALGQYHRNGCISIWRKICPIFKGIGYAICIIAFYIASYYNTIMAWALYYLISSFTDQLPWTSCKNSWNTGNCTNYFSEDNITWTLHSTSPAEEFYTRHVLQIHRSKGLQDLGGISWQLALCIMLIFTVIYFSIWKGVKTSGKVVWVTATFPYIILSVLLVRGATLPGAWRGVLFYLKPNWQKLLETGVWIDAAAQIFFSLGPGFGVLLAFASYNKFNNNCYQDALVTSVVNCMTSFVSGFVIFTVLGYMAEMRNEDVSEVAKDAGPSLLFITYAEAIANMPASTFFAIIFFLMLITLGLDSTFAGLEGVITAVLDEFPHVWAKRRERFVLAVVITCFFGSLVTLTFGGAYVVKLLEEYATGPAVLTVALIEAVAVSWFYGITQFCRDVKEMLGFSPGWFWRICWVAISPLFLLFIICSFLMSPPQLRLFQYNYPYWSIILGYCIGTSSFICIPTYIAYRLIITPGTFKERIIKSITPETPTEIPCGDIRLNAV
assayProcedure: Displacement of [3H]citalopram from human recombinant SERT scintillation proximity assay
assayReadout: pKi
Scale: pKi equals -log10([C]), with [C] in mol/L.

Study these solved cases before continuing.
molecule: Cc1coc(C[C@@]23CNCC[C@]2(c2ccc(Cl)c(Cl)c2)C3)n1 (racemic)
experimentalSystem: Sodium-dependent serotonin transporter (Homo sapiens)
pKi: 8.70

molecule: Cc1cc(C)n(CC23CNCC[C@]2(c2ccc(Cl)c(Cl)c2)C3)n1 (single isomer, unassigned; enantiomer 1)
experimentalSystem: Sodium-dependent serotonin transporter (Homo sapiens)
pKi: 7.80

molecule: Cc1ccnn1CC12CNCC[C@]1(c1ccc(Cl)c(Cl)c1)C2 (single isomer, unassigned; enantiomer 2)
experimentalSystem: Sodium-dependent serotonin transporter (Homo sapiens)
pKi: 9.10

In plain terms, FC(F)(F)c1ccn(C[C@@]23CNCC[C@]2(c2ccc(Cl)c(Cl)c2)C3)n1 (racemic) has a documented pKi of 8.70

###

experimentalSystem: Sodium-dependent noradrenaline transporter (Homo sapiens, UniProt P23975)
Sequence (P23975 whole entry): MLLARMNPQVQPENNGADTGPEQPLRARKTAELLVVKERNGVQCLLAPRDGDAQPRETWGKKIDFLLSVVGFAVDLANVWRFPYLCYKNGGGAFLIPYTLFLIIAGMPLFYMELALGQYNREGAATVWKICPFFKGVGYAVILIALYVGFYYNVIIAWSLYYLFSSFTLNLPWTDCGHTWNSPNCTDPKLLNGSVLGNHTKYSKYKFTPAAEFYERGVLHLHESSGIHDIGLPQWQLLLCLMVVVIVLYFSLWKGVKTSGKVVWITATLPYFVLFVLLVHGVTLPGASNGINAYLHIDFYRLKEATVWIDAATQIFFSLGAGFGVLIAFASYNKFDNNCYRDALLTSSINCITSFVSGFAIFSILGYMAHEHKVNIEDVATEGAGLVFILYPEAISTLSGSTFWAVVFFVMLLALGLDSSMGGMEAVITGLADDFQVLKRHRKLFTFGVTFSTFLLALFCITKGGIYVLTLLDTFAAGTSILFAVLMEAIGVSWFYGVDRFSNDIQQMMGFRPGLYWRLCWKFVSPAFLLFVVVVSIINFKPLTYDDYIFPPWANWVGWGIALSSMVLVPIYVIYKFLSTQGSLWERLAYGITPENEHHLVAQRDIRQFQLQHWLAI
assayProcedure: Displacement of [3H]nisoxetine from human recombinant NET by scintillation proximity assay
# Ki per record follows
In your response, the unit should come after the numeric value.

Study these solved cases before continuing.
compound: FC(F)(F)c1ccnn1C[C@@]12CNCC[C@]1(c1ccc(Cl)c(Cl)c1)C2 (racemic)
Ki: 10 nM
--
compound: Clc1ccc([C@]23CCNC[C@@]2(Cn2cccc2)C3)cc1Cl (racemic)
Ki: 10 nM

Read the next record carefully.
Observed Ki, Sodium-dependent noradrenaline transporter (Homo sapiens, UniProt P23975), Cc1cnc([C@@]23CNCC[C@]2(c2ccc(Cl)c(Cl)c2)C3)o1 (racemic) : 6.31 nM
